system: TYK2(JH1domain-catalytic); conditions: concentration: 1 μM, replicates: in singlicate; n = 1
parameter_measured: %Inh (%)
# value in %; strip the unit string

Query: Form: Entry = COc1cc2ncn(-c3cc(OCc4ccncc4)c(C(N)=O)s3)c2cc1OC | System = TYK2(JH1domain-catalytic) | %Inh = ____
Response: 3

Query: Form: Entry = Cc1cc(Nc2nc(-c3cccc(C)n3)nc3ccccc23)ccn1 | System = TYK2(JH1domain-catalytic) | %Inh = ____
Response: 0

Query: Form: Entry = COc1cc2nccc(Nc3ccc(OCc4ccc(NC(C)=O)cc4)cc3)c2cc1OC.Cl | System = TYK2(JH1domain-catalytic) | %Inh = ____
Response: 9

Query: Form: Entry = Cc1ccc(Oc2ccc(Nc3ncnc4cc[nH]c34)cc2C)cn1 | System = TYK2(JH1domain-catalytic) | %Inh = ____
Response: 22

Query: Form: Entry = Cc1cccc(-c2cc(-c3c[nH]nc3-c3ccccn3)ccn2)c1 | System = TYK2(JH1domain-catalytic) | %Inh = ____
Response: 9

Query: Form: Entry = Cn1c(=O)c(F)c(Nc2ccc(I)cc2F)c2c(=O)n(OC[C@H](O)CO)cnc21 | System = TYK2(JH1domain-catalytic) | %Inh = ____
Response: 0

Query: Form: Entry = COc1ccc(CNC(=O)NC2CCN(c3ccnc(Nc4ccc(F)cc4)n3)C2)cc1 (stereo not drawn) | System = TYK2(JH1domain-catalytic) | %Inh = ____
Response: 27

Query: Form: Entry = COc1ccc(-c2cc3c(C)nc(N)nc3n([C@H]3CC[C@H](O)CC3)c2=O)cn1 | System = TYK2(JH1domain-catalytic) | %Inh = ____
Response: 0

Query: Form: Entry = CCc1ccc(-c2ccc3c(c2)-c2nn(C)cc2S(=O)(=O)N3C)cc1 | System = TYK2(JH1domain-catalytic) | %Inh = ____
Response: 0

Query: Form: Entry = CN1C(=O)C(Nc2cc(Cl)c(O)c(Cl)c2)=C(c2ccc(Cl)cc2)C1=O | System = TYK2(JH1domain-catalytic) | %Inh = ____
Response: 0

Query: Form: Entry = CC(C)(C)c1ccc(C(=O)Nc2cn3cc(-c4ccccc4)ccc3n2)cc1 | System = TYK2(JH1domain-catalytic) | %Inh = ____
Response: 0

Query: Form: Entry = CN(C)c1cc(-c2ccc3c(N)n[nH]c3c2)nc(N)n1 | System = TYK2(JH1domain-catalytic) | %Inh = ____
Response: 14

Query: Form: Entry = COc1ccc(Nc2nccc(N3CCC(NS(=O)(=O)c4ccc(NC(C)=O)cc4)C3)n2)cc1 (stereo not drawn) | System = TYK2(JH1domain-catalytic) | %Inh = ____
Response: 93.8

Query: Form: Entry = Cl.c1ccc(Cn2cnc3cc(Nc4ncnc5ccccc45)ccc32)cc1 | System = TYK2(JH1domain-catalytic) | %Inh = ____
Response: 13

Query: Form: Entry = COc1cccc(C2=C(N(C)c3ccccc3)C(=O)NC2=O)c1 | System = TYK2(JH1domain-catalytic) | %Inh = ____;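 also: KINOMEscan kinase panel screen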
Response: 12
